Reported shrunken log2 fold change values are given for each entry in this list.
System: Escherichia coli TOP10
measurement description: shrunken log2 fold change of peptide-encoding DNA abundance (4.5 h post-induction vs induction); higher = less antimicrobial activity (less host growth inhibition)
measurement setup: time post-induction: 4.5 h; library: site-saturation at positions 5, 18, 19, 20
Please reply with the value in numeric form only.

Reported shrunken log2 fold change for RRIRPRPPRLPRPRPRPQYSPRP : what is it? -0.0482

Field entry: RRIRMRPPRLPRPRPRPDPAPRP 1.13

---

Tested on: Escherichia coli TOP10;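 further: peptides expressed intracellularly from a pBAD plasmid library in pooled LB shake-flask culture, induced with 0.3% L-arabinose, DNA abundance read by NGS, three biological replicates, DESeq2 with apeglm shrinkage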
measurement description: shrunken log2 fold change of peptide-encoding DNA abundance (4.5 h post-induction vs induction); higher = less antimicrobial activity (less host growth inhibition)
measurement setup: time post-induction: 4.5 h; library: site-saturation at positions 5, 18, 19, 20
Measured shrunken log2 fold change values are reported for all entries that follow.
Respond with the number and no other words.

Answered examples (8):
{"construct sequence": "RRIRHRPPRLPRPRPRPERWPRP", "shrunken log2 fold change": 0.357}
{"construct sequence": "RRIRKRPPRLPRPRPRPNRDPRP", "shrunken log2 fold change": 0.169}
{"construct sequence": "RRIRERPPRLPRPRPRPETMPRP", "shrunken log2 fold change": 0.0664}
{"construct sequence": "RRIRMRPPRLPRPRPRPELFPRP", "shrunken log2 fold change": 3.28}
{"construct sequence": "RRIRNRPPRLPRPRPRPKARPRP", "shrunken log2 fold change": -0.00166}
{"construct sequence": "RRIRERPPRLPRPRPRPNTLPRP", "shrunken log2 fold change": -0.556}
{"construct sequence": "RRIRLRPPRLPRPRPRPTMEPRP", "shrunken log2 fold change": 0.274}
{"construct sequence": "RRIRCRPPRLPRPRPRPRTGPRP", "shrunken log2 fold change": 0.148}

Shift focus to the following entry.
Which value of shrunken log2 fold change has been reported for RRIRPRPPRLPRPRPRPAGWPRP in the records? 0.765

Values from the supplement of paper PMC9112550
